The reported numbers originate from patent US5587468.

- measurement target: HIV-1 integrase (Human immunodeficiency virus 1 (BH10), UniProt P03366 P03366:1160-1447)
- assay comment: competition; inhibits binding of con+/- U5 DNA, 180 mM NaCl
- assay context: tags: gift of Agouron Pharmaceuticals; BH10 clone; stem-loops with GNRA tetraloop and putative pseudoknot (11-14 with 28-31)
pIC50: −log10 of the molar value.
quantity measured: pIC50

>>> measured_result("P5 (ssRNA) RNA: GGGAGCUCAGAAUAAACGCUCAACCAGUCUUGUGGCUUUGAAAGAGAGGAGUGUUCGACAUGAGGCCCGGAUCCGGC")
8.22
